# System: spontaneously hypertensive male rats (SHR)
# assay-overview: Antihypertensive activity in spontaneously hypertensive rats
# Assay type: in vivo
# condition-notes: Rattus norvegicus, po, 30 mg/kg oral, systolic pressure 3 to 4 hr after administration, mean ± SEM of 3 to 4 SHRs, read-out: Blood pressure depression, %
The reader will find reported inhibition in vivo at 30 mg/kg values listed item by item below.
Could you give me the number in %? Just the number is fine.

Illustrative cases are given below, each with its answer.
>>> assay_value("FC(F)(F)CCCN1CCCC(Nc2cccc3cnccc23)C1 (stereo not drawn) [Example 273]")
30.4
>>> assay_value("O=C(NCCF)C(c1ccccc1)N1CCCC(Nc2ccc3[nH]ncc3c2)C1 (stereo not drawn) [Example 227]")
22.2
>>> assay_value("FCCN[C@H]1CC[C@H](Nc2ccc3[nH]ncc3c2)CC1 [Example 246 (anti)]")
51.4
>>> assay_value("FC(F)(F)CCN1CCC(Nc2ccc3[nH]ncc3c2)CC1 [Example 290]")
17.2
>>> assay_value("CCCN1CCC(Nc2ccc3[nH]ncc3c2)CC1 [Example 286]")
23.6

Can you look up the measured inhibition in vivo at 30 mg/kg of FCCN[C@H]1CC[C@@H](Nc2cccc3cnccc23)CC1 [Example 261 (syn)] for me?
46.4

Can you look up the measured inhibition in vivo at 30 mg/kg of CC(C)C(c1ccccc1)N1CCCC(Nc2ccc3[nH]ncc3c2)C1 (stereo not drawn) [Example 240] for me?
21.1

----------
# experimental-target: Rho kinase (fused protein of bovine Rho kinase catalyst region and glutathione S-transferase) (Bos taurus, UniProt Q28021)
# Sequence (Q28021 92-354 limits assumed): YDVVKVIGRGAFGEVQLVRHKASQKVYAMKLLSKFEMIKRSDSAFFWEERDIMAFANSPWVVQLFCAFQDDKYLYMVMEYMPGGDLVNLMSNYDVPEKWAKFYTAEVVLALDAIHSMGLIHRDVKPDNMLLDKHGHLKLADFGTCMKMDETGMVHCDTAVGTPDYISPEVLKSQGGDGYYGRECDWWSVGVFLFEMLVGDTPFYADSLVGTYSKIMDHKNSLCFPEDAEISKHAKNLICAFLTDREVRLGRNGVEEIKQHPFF
pIC50: −log10 of the molar value.
The threshold is inclusive: pIC50 of exactly 6 counts as satisfied; values below receive not satisfied.

Use the examples below as a reference point.
>>> category_label("O=C(NCc1c(F)cccc1Cl)Nc1ccc2[nH]ncc2c1")
"satisfied"
>>> category_label("O=C(CSc1c(Cl)cccc1Cl)Nc1ccncc1")
"not satisfied"
>>> category_label("O=C(NCc1ccccc1[N+](=O)[O-])Nc1ccncc1")
"not satisfied"
>>> category_label("O=C(CCc1ccc2c(c1)OCO2)Nc1ccc2[nH]ncc2c1")
"satisfied"

Form field: pIC50 at least 6? Entry: `O=C(Nc1ccc2c(c1)C(=O)NC2=O)Nc1c(Cl)cccc1Cl`
not satisfied

Form field: pIC50 at least 6? Entry: `O=C(NCc1c(F)cccc1C(F)(F)F)Nc1ccc2c(c1)C(=O)NC2=O`
satisfied

Form field: pIC50 at least 6? Entry: COc1ccc(CN2CCCC(Nc3ccc4[nH]ncc4c3)C2)cc1 (stereo not drawn)
satisfied

Form field: pIC50 at least 6? Entry: `COc1cc(CNC(=O)Nc2ccc3[nH]ncc3c2)ccc1O`
satisfied

----------
# System: Human-derived histiocyte lymphoma (U937/CCR2)
# assay-overview: Leukocyte migration inhibitory activity (MCP-1 induced migration, CHEMOTAXICELL)
# Assay type: cell-based
# condition-notes: Homo sapiens, U-937, 1 h, test compound 1 μM; U937/CCR2, MCP-1, 1 hr; read-out: Migration inhibition (%) ± SEM
The threshold is inclusive: inhibition at 1 µM of exactly 60% counts as satisfied; values below receive not satisfied.

>>> category_label("c1cc(NC2CCC(NC3CC3)CC2)c2ccncc2c1 (stereo not drawn) [262 (anti)]")
"satisfied"
>>> category_label("CCCN[C@H]1CC[C@H](Nc2cccc3cnccc23)CC1 [260 (anti)]")
"satisfied"
>>> category_label("Fc1cc(F)c(CN2CCCC(Nc3ccc4[nH]ncc4c3)C2)c(F)c1 (stereo not drawn) [Example 282]")
"not satisfied"
>>> category_label("CCC(CC)CN1CCC(Nc2cccc3cnccc23)CC1 [Example 320]")
"satisfied"

Alright, here's another molecule for you.
Form field: inhibition at 1 µM at least 60%? Entry: CCCN[C@H]1CC[C@@H](Nc2cccc3cnccc23)CC1 [Example 260 (syn)]
not satisfied

----------
Please consider the recorded pIC50 for UniProt Q28021 in what follows.
Quick note: pIC50 values are minus log10 of concentrations in mol/L.

Illustrative cases are given below, each with its answer.
>>> assay_value("c1ccc(CN2CCC(Nc3ccc4[nH]ncc4c3)C2)cc1 (stereo not drawn)")
7.49
>>> assay_value("Fc1cccc(Cl)c1CN1CCC(Nc2ccc3[nH]ncc3c2)CC1")
6.09
>>> assay_value("O=C(/C=C/c1ccc(O)cc1)Nc1ccc2[nH]ncc2c1")
6.52
>>> assay_value("O=C(/C=C/c1c(Cl)cccc1Cl)Nc1ccncc1")
5.60
>>> assay_value("CC(C)c1ccc(CN2CCC(Nc3ccc4[nH]ncc4c3)CC2)cc1")
6.51
>>> assay_value("O=C(NCc1c(F)cc(F)cc1F)Nc1ccc2c(c1)C(=O)NC2=O")
6.62

Can you look up the measured pIC50 of Brc1ccc(CN2CCC(Nc3ccc4[nH]ncc4c3)C2)cc1 (stereo not drawn) for me?
7.62

Can you look up the measured pIC50 of `CCc1ccc(CN2CCC(Nc3ccc4[nH]ncc4c3)CC2)cc1` for me?
6.62

Can you look up the measured pIC50 of `O=C(NCc1c(F)cc(F)cc1F)Nc1ccc2[nH]ncc2c1` for me?
6.59

----------
# experimental-target: UniProtKB Q28021
measure: pIC50
Quick note: pIC50 values are minus log10 of concentrations in mol/L.

>>> assay_value("Brc1ccc(CN2CCCC(Nc3ccc4[nH]ncc4c3)C2)cc1 (stereo not shown)")
7.96
>>> assay_value("c1ccc(COc2ccc(CN3CCC(Nc4ccc5[nH]ncc5c4)CC3)cc2)cc1")
6.18
>>> assay_value("Cc1ccc(CN2CCC(Nc3ccc4[nH]ncc4c3)CC2)cc1")
6.60
>>> assay_value("COc1ccc(CN2CCC(Nc3ccc4[nH]ncc4c3)C2)cc1 (stereo not shown)")
8.70
>>> assay_value("O=C(Cc1ccc([N+](=O)[O-])cc1[N+](=O)[O-])Nc1ccc2[nH]ncc2c1")
6.91
>>> assay_value("O=C(/C=C/c1ccc(O)c(O)c1)Nc1ccc2[nH]ncc2c1")
6.97

Hi! What's the reported pIC50 for `O=C(COc1c(Cl)cccc1Cl)Nc1ccc2[nH]ncc2c1` on UniProtKB Q28021?
5.94

Hi! What's the reported pIC50 for `c1cc2[nH]ncc2cc1NC1CCNCC1` on UniProtKB Q28021?
6.54

Hi! What's the reported pIC50 for c1ccc(NC2CCC(Nc3ccc4[nH]ncc4c3)CC2)cc1 (stereo not shown) on UniProtKB Q28021?
6.58

Hi! What's the reported pIC50 for `O=C(Cc1cccc([N+](=O)[O-])c1)Nc1ccc2[nH]ncc2c1` on UniProtKB Q28021?
6.72

Hi! What's the reported pIC50 for `COC(=O)c1cccc(CN2CCC(Nc3ccc4[nH]ncc4c3)CC2)c1` on UniProtKB Q28021?
6.34

Hi! What's the reported pIC50 for `O=C(NCc1c(F)cccc1C(F)(F)F)Nc1ccc2[nH]ncc2c1` on UniProtKB Q28021?
6.64

Hi! What's the reported pIC50 for Cc1ccc(CN2CCCC(Nc3ccc4[nH]ncc4c3)C2)cc1 (stereo not shown) on UniProtKB Q28021?
8.05

Hi! What's the reported pIC50 for `O=C(NCc1c(Cl)cccc1Cl)Nc1ccc2[nH]ncc2c1` on UniProtKB Q28021?
5.85

Hi! What's the reported pIC50 for `CC(=O)Oc1ccc(CN2CCC(Nc3ccc4[nH]ncc4c3)CC2)cc1` on UniProtKB Q28021?
6.69

----------
# experimental-target: Rho kinase (fused protein of bovine Rho kinase catalyst region and glutathione S-transferase) (Bos taurus)
measure: IC50
Give your result as the value with the unit written after it.

Illustrative cases are given below, each with its answer.
>>> assay_value("COC(=O)c1ccc(CN2CCC(Nc3ccc4[nH]ncc4c3)CC2)cc1 [Example 148]")
"0.166 µM"
>>> assay_value("O=C(NCC1CCCCC1)Nc1ccc2c(c1)C(=O)NC2=O [Example 76]")
"1.69 µM"
>>> assay_value("O=C(Cc1ccc2c(c1)OCO2)Nc1ccc2[nH]ncc2c1 [Example 45]")
"0.153 µM"
>>> assay_value("c1cc(CN2CCC(Nc3ccc4[nH]ncc4c3)CC2)ccn1 [Example 133]")
"0.68 µM"
>>> assay_value("O=C(NCc1c(F)cccc1F)Nc1ccc2c(c1)C(=O)NC2=O [Example 90]")
"0.069 µM"
>>> assay_value("O=C(NCc1c(F)c(F)c(F)c(F)c1F)Nc1ccc2c(c1)C(=O)NC2=O [Example 98]")
"0.41 µM"
>>> assay_value("O=[N+]([O-])c1ccc(CN2CCC(Nc3ccc4[nH]ncc4c3)CC2)cc1 [Example 141]")
"0.661 µM"
>>> assay_value("COc1ccc(/C=C/C(=O)Nc2ccc3[nH]ncc3c2)cc1O [Example 41]")
"0.224 µM"

Can you look up the measured IC50 of O=C(COc1c(Br)cc(F)cc1Br)Nc1ccncc1 [Example 2] for me?
2.21 µM

Taken from patent US7217722B2.
